Format: physicochemical
Conditions: DI water, 25° C., 0.5 mM; time 5 min
Collected Condition 2 Conversion (%) values appear next to each entry.
Only the number, expressed in %, is required.

Answered cases to consult:
Condition 2 Conversion (%) lookup needed for COc1ccc([C@@]23CCC(=NOC4CCCCO4)C[C@@H]2N(C)CC3)cc1OC (some centres unmarked) , thanks.
0

Next: COc1ccc([C@@]23CCC(=NNC(=O)Nc4ccc(S(C)(=O)=O)cc4)C[C@@H]2N(C)CC3)cc1OC
0

Next: COc1ccc([C@]23CCN(C)[C@H]2CC2(CC3)OCC(C(=O)O)O2)cc1OC (some centres unmarked)
0

Next: COc1ccc([C@@]23CCC(=NNc4ncccc4C)C[C@@H]2N(C)CC3)cc1OC
0

Next: COc1ccc([C@@]23CCC(=NNC(=O)c4ccc(Cl)cc4)C[C@@H]2N(C)CC3)cc1OC
30

Next: COc1ccc([C@@]23CCC(=NNC(=O)C(=O)O)C[C@@H]2N(C)CC3)cc1OC
28

More entries:
Condition 2 Conversion (%) lookup needed for C=C(C)C(=O)OC1=C[C@@H]2N(C)CC[C@]2(c2ccc(OC)c(OC)c2)CC1 , thanks.
0

Next: COc1ccc([C@@]23CC/C(=N\NC(=O)c4ccccc4C(=O)O)C[C@@H]2N(C)CC3)cc1OC
0

Next: COc1ccc([C@@]23CCC(=NOCc4ccccc4)C[C@@H]2N(C)CC3)cc1OC
0

Next: COc1ccc([C@]23CCN(C)[C@H]2CC(OC)(OC)CC3)cc1OC (stereo in doubt)
0

Next: COc1ccc([C@@]23CCC(=NNC(=O)CC(CC(=O)O)CC(C)C)C[C@@H]2N(C)CC3)cc1OC (some centres unmarked)
36.51

Next: COc1ccc([C@@]23CCC(=NNC(=O)COc4ccccc4)C[C@@H]2N(C)CC3)cc1OC
10.4

Next: COc1ccc([C@@]23CC/C(=N/OC45CC6CC(CC(C6)C4)C5)C[C@@H]2N(C)CC3)cc1OC [Compound 301]
0

Next: COc1ccc([C@@]23CCC(OC(C)=O)=C[C@@H]2N(C)CC3)cc1OC
0

Next: COc1ccc([C@@]23CCC(OC(=O)c4ccccc4C)=C[C@@H]2N(C)CC3)cc1OC
0

Next: COc1ccc([C@@]23CC/C(=N/OC(C)(C)OC)C[C@@H]2N(C)CC3)cc1OC
0

Next: COc1ccc([C@@]23CCC(OC(=O)C4CC4)=C[C@@H]2N(C)CC3)cc1OC
0

Next: COc1ccc([C@@]23CC/C(=N\NC(=O)C4(C(=O)O)CC4)C[C@@H]2N(C)CC3)cc1OC
0

Next: COc1ccc([C@@]23CCC(=NOCC(=O)O)C[C@@H]2N(C)CC3)cc1OC
0

Next: CCC(=O)OC1=C[C@@H]2N(C)CC[C@]2(c2ccc(OC)c(OC)c2)CC1
0

Next: COc1ccc([C@@]23CCC(=NNCc4cccc(C)c4)C[C@@H]2N(C)CC3)cc1OC
8.3

Next: COc1ccc([C@@]23CCC(=NOCCO)C[C@@H]2N(C)CC3)cc1OC
0

Next: COc1ccc([C@@]23CC/C(=N\NC(=O)Nc4ccc(N5CCN(C)CC5)cc4)C[C@@H]2N(C)CC3)cc1OC
0

Next: COc1ccc([C@@]23CCC(=NNCc4ccccn4)C[C@@H]2N(C)CC3)cc1OC
0

Next: COc1ccc([C@@]23CCC(=NOCCC45CC6CC(CC(C6)C4)C5)C[C@@H]2N(C)CC3)cc1OC
0

Next: COc1ccc([C@@]23CCC(=NOc4ccccc4)C[C@@H]2N(C)CC3)cc1OC
0

###

Collected Condition 1 Conversion (%) values appear next to each entry.
Type: physicochemical
Details: SGF with pepsin, pH 1.5, 37° C., 0.5 mM; time 24 h
Only the number, expressed in %, is required.

Condition 1 Conversion (%) lookup needed for COc1ccc([C@@]23CCC(=NNC(=O)CC[C@H](NC(=O)c4ccc(NCc5cnc6nc(N)nc(O)c6n5)cc4)C(=O)O)C[C@@H]2N(C)CC3)cc1OC [Compound 172] , thanks.
100

Next: COc1ccc([C@@]23CC/C(=N/OC45CC6CC(CC(C6)C4)C5)C[C@@H]2N(C)CC3)cc1OC [Compound 274]
39.91

More entries:
Condition 1 Conversion (%) lookup needed for COc1ccc([C@]23CCN(C)[C@H]2CC2(CC3)O[C@@H]([C@@H](O)Cn3c4nc(=O)[nH]c(=O)c-4nc4cc(C)c(C)cc43)[C@@H](CO)O2)cc1OC (stereo partly shown) [Compound 196] , thanks.
0

Next: COc1ccc([C@@]23CCC(=NOCc4cccnc4)C[C@@H]2N(C)CC3)cc1OC [Compound 209]
0

###

Collected Condition 1 Conversion (%) values appear next to each entry.
Format: physicochemical
Conditions: SGF with pepsin, pH 1.5, 37° C., 0.5 mM; time 30 min
Only the number, expressed in %, is required.

Answered cases to consult:
Condition 1 Conversion (%) lookup needed for C=C(C)C(=O)OC1=C[C@@H]2N(C)CC[C@]2(c2ccc(OC)c(OC)c2)CC1 [Compound 315] , thanks.
0

Next: COc1ccc([C@@]23CCC(=NOc4ccccc4)C[C@@H]2N(C)CC3)cc1OC [Compound 207]
0

Next: COc1ccc([C@@]23CC/C(=N/OC45CC6CC(CC(C6)C4)C5)C[C@@H]2N(C)CC3)cc1OC [Compound 274]
0

Next: COc1ccc([C@]23CCN(C)[C@H]2CC2(CC3)OC[C@H]([C@@H](O)[C@@H](O)Cn3c4nc(=O)[nH]c(=O)c-4nc4cc(C)c(C)cc43)O2)cc1OC (some centres unmarked) [Compound 174]
0

Next: COc1ccc([C@@]23CCC(OC(=O)c4ccc(N(C)C)cc4)=C[C@@H]2N(C)CC3)cc1OC [Compound 355]
0

Next: CO/N=C1/CC[C@@]2(c3ccc(OC)c(OC)c3)CCN(C)[C@H]2C1 [Compound 035]
5.4

Next: COc1ccc([C@@]23CCC(=NNCc4ccccn4)C[C@@H]2N(C)CC3)cc1OC [Compound 369]
100

Next: COc1ccc([C@@]23CC/C(=N\NC(=O)C4(C(=O)O)CC4)C[C@@H]2N(C)CC3)cc1OC [Compound 243]
100

More entries:
Condition 1 Conversion (%) lookup needed for COc1ccc([C@@]23CCC(=NNC(=O)Nc4cccnc4)C[C@@H]2N(C)CC3)cc1OC [Compound 299] , thanks.
100

Next: COc1ccc([C@@]23CCC(=NNC(=O)COc4ccccc4)C[C@@H]2N(C)CC3)cc1OC [Compound 223]
100

Next: CO/N=C1\CC[C@@]2(c3ccc(OC)c(OC)c3)CCN(C)[C@H]2C1 [Compound 038]
1.3

Next: COc1ccc([C@@]23CCC(=NNC(=O)C(=O)O)C[C@@H]2N(C)CC3)cc1OC [Compound 241]
100

Next: C/C=C(\C)C(=O)OC1=C[C@@H]2N(C)CC[C@]2(c2ccc(OC)c(OC)c2)CC1 [Compound 313]
0

Next: COc1ccc([C@@]23CCC(=NOCc4ccccc4)C[C@@H]2N(C)CC3)cc1OC [Compound 208]
0

Next: COc1ccc([C@@]23CC/C(=N/OC45CC6CC(CC(C6)C4)C5)C[C@@H]2N(C)CC3)cc1OC [Compound 301]
0

Next: COc1ccc([C@@]23CC/C(=N\NC(=O)c4cccnc4)C[C@@H]2N(C)CC3)cc1OC [Compound 036]
100

Next: COc1ccc([C@@]23CCC(=NNc4ccc5ccccc5n4)C[C@@H]2N(C)CC3)cc1OC [Compound 366]
47.1

Next: COc1ccc([C@@]23CCC(=NOCCON=C4CC[C@@]5(c6ccc(OC)c(OC)c6)CCN(C)[C@H]5C4)C[C@@H]2N(C)CC3)cc1OC [Compound 210]
3.48

Next: COc1ccc([C@@]23CC/C(=N\NC(=O)NC[C@H]4CC[C@H](C(=O)O)CC4)C[C@@H]2N(C)CC3)cc1OC [Compound 258]
42.82

Next: COc1ccc([C@@]23CCC(=NNc4ccc(C(=O)O)cc4)C[C@@H]2N(C)CC3)cc1OC [Compound 363]
0

###

Collected Condition 2 Conversion (%) values appear next to each entry.
Format: physicochemical
Settings: DI water, 25° C., 0.5 mM; time 1 h
Only the number, expressed in %, is required.

Answered cases to consult:
Condition 2 Conversion (%) lookup needed for COc1ccc([C@@]23CCC(OC(=O)C(c4ccccc4)c4ccccc4)=C[C@@H]2N(C)CC3)cc1OC [Compound 306] , thanks.
0

Next: COc1ccc([C@@]23CCC(=NNC(=O)CC[C@H](NC(=O)c4ccc(NCc5cnc6nc(N)nc(O)c6n5)cc4)C(=O)O)C[C@@H]2N(C)CC3)cc1OC [Compound 172]
100

Next: COc1ccc([C@]23CCN(C)[C@H]2CC(OC)(OC)CC3)cc1OC (stereo in doubt) [Compound 190]
0

Now examine the next entry.
Condition 2 Conversion (%) lookup needed for COc1ccc([C@@]23CC/C(=N/NC(=O)Nc4ccccc4Cl)C[C@@H]2N(C)CC3)cc1OC [Compound 270] , thanks.
0
